As shown below, each of these compounds has a reported pIC50 value.
# System: PC3 cells
# assay_overview: NAMPT Cell Proliferation Assay
# Format: cell-based
# condition_summary: 5 days incubation, cell viability by Cell Titer Glo
pIC50: −log10 of the molar value.
endpoint: pIC50

compound	endpoint	measured_number
Cc1nc(C(=O)N2CCC(c3ccc(C(=O)NCc4ccn5ccnc5c4)cc3)CC2)c2n1CCCC2 [Example 1099]	pIC50	7.81
O=C(NCc1ccn2ccnc2c1)c1ccc(C2CCN(C(=O)/C=C/c3ccccn3)CC2)cc1 [Example 991]	pIC50	7.17

---

# measurement_target: NAMPT (human, recombinant, C-terminally His-tagged) (Homo sapiens)
# assay_overview: Time-Resolved Fluorescence Resonance Energy Transfer (TR-FRET) Binding Assay of NAMPT
# condition_summary: without substrates; 6.8 nM NAMPT, 200 nM probe, 3 hours equilibration

compound_string	IC50
O=C(NCc1ccn2ccnc2c1)c1ccc(C2CN(C(=O)c3nccs3)C2)cc1	214 nM
CC[C@H](C)C(=O)N1CC(c2ccc(C(=O)NCc3ccn4ccnc4c3)cc2)C1	498 nM
O=C(NCc1ccn2ccnc2c1)c1ccc(C2CN(S(=O)(=O)c3ccccc3)C2)cc1	217 nM
CC(C)(C)OC(=O)N1CC=C(c2ccc(C(=O)NCc3ccc4nccn4c3)cc2)CC1	899 nM

---

# measurement_target: NAMPT (human, recombinant, C-terminally His-tagged) (Homo sapiens, UniProt P43490)
# Sequence (P43490 whole entry): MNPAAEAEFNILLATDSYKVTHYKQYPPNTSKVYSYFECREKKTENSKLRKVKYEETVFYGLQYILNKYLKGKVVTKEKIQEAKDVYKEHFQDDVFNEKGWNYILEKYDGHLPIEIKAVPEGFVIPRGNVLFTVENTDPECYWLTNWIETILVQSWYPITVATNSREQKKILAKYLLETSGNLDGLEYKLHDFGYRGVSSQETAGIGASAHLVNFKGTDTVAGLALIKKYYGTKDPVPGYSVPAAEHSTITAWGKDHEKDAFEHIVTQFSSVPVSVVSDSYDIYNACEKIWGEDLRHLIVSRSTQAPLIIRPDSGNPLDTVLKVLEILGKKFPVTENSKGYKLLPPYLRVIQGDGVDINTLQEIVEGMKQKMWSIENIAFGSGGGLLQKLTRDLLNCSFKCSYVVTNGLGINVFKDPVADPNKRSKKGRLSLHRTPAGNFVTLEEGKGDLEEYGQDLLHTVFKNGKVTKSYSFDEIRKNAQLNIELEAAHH
# assay_overview: Time-Resolved Fluorescence Resonance Energy Transfer (TR-FRET) Binding Assay of NAMPT
# condition_summary: without substrates; 6.8 nM NAMPT, 200 nM probe, 3 hours equilibration
pIC50: −log10 of the molar value.

molecule	measurement_target	censoring_sign	pIC50
CC(C)S(=O)(=O)N1CCC(c2ccc(C(=O)NCc3cn4ccnc4cn3)cc2)CC1	NAMPT (human, recombinant, C-terminally His-tagged) (Homo sapiens, UniProt P43490)	=	7.18
CC(=O)N1CCC(c2ccc(NC(=O)NCc3ccn4ccnc4c3)cc2)C1 (centres unmarked)	NAMPT (human, recombinant, C-terminally His-tagged) (Homo sapiens, UniProt P43490)	=	6.55
O=C(NCc1ccn2ccnc2c1)c1ccc(C2CCN(C(=O)c3ccccc3)CC2)cc1	NAMPT (human, recombinant, C-terminally His-tagged) (Homo sapiens, UniProt P43490)	=	7.54
O=C(NCc1ccn2ccnc2c1)c1ccc(C2CCN(C(=O)c3cccc(OC(F)(F)F)c3)CC2)cc1	NAMPT (human, recombinant, C-terminally His-tagged) (Homo sapiens, UniProt P43490)	=	6.25
COCCC(=O)N(C[C@@H]1CCCO1)c1ncc(C(=O)NCc2ccc3nccn3c2)s1	NAMPT (human, recombinant, C-terminally His-tagged) (Homo sapiens, UniProt P43490)	=	5.21
O=C(NCc1ccn2ccnc2c1)c1ccc(-c2cnn(CC(F)(F)F)c2)o1	NAMPT (human, recombinant, C-terminally His-tagged) (Homo sapiens, UniProt P43490)	=	6.44
O=C(NCc1ccn2ccnc2c1)c1ccc(C2CN(C(=O)c3cccc(OC(F)(F)F)c3)C2)cc1	NAMPT (human, recombinant, C-terminally His-tagged) (Homo sapiens, UniProt P43490)	=	6.39
O=C(NCc1ccn2ccnc2c1)c1ccc(O[C@H]2CCN(C(=O)[C@@H]3CCCO3)C2)cc1	NAMPT (human, recombinant, C-terminally His-tagged) (Homo sapiens, UniProt P43490)	<	5.00
